B1: TPR t1 (parent)
chain: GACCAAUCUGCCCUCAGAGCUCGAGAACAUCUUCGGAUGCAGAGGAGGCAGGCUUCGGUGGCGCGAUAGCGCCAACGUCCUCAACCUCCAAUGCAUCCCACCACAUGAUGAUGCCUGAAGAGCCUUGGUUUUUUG

# Variants of: B1
# Procedure details: polymerase ribozyme fitness, log enrichment relative to wild type (log ratio); higher = more active; in vitro selection for triplet polymerase activity
Please mark label 1 if the recorded polymerase ribozyme fitness (log ratio) is equal to or greater than -4, and label 0 if it falls below.

Answered cases to consult:
Problem: Hi, just wondering whether C15A C114U shows polymerase ribozyme fitness (log ratio) of -4 or higher.
Solution: label 0

Problem: Check the entry G10U U38G U78A G128A : does polymerase ribozyme fitness (log ratio) equal or exceed -4?
Solution: label 1

Problem: Reported polymerase ribozyme fitness (log ratio) at or above -4? C49G G69U G117A
Solution: label 1

---
Problem: Exam item: decide whether the reported polymerase ribozyme fitness (log ratio) for U32C A100C is at least -4.
Solution: label 1

Problem: Is it the case that U81A C88U has polymerase ribozyme fitness (log ratio) reaching or exceeding -4?
Solution: label 1

Problem: polymerase ribozyme fitness (log ratio) >= -4 for G17A G48C C124A G128A ?
Solution: label 1

Problem: Does the reported polymerase ribozyme fitness (log ratio) for U7A C64U C89G A91U C97U C115U fall at or above the -4 mark?
Solution: label 1

Problem: Entry U9A C40U A46U C56U C115G U131G : is its polymerase ribozyme fitness (log ratio) no less than -4?
Solution: label 1

Problem: Given the entry C70G G120C , answer whether its polymerase ribozyme fitness (log ratio) meets or surpasses -4.
Solution: label 1

Problem: Determine whether measured polymerase ribozyme fitness (log ratio) meets or exceeds -4 for C3U G63A
Solution: label 1

Problem: Does the reported polymerase ribozyme fitness (log ratio) for A16G G44U G117A fall at or above the -4 mark?
Solution: label 1

Problem: Say whether C12U U14C C72G C82G U112A shows polymerase ribozyme fitness (log ratio) of -4 or more.
Solution: label 1

Problem: Exam item: decide whether the reported polymerase ribozyme fitness (log ratio) for A16U C49A G51U U55G U126G G128U is at least -4.
Solution: label 0
